Hey, just so you know, these numbers are from the DeepSol protein solubility set.

- MEASUREMENT_NOTES: soluble on expression in E. coli; label from the status in PepcDB or PDB records

[
  {
    "PRIMARY_SEQUENCE": "MFTGSIVALVTPMDEKGNVSRSCLKKLIDYHVANGTSAIVSVGTTGESATLSHDEHGDVVMMTLELADGRIPVIAGTGANATAEAISLTQRFNDSGIVGCLTVTPYYNRPTQEGLFQHFKAIAEHTDLPQILYNVPSRTGCDMLPETVGRLAEIKNIIAIKEATGNLTRVHQIKELVSDDFILLSGDDASALDFMQLGGHGVISVTANVAAREMADMCKLAAEGQFAEARAINQRLMPLHNKLFVEPNPIPVKWACKALGLVATDTLRLPMTPITDHGRDIVKAALQHAGLL",
    "soluble on expression in E. coli": "not soluble"
  },
  {
    "PRIMARY_SEQUENCE": "MGSDKIHHHHHHMHKTRYNALSVAFQISPRGPLLIKAGGISANPTLPDMQFVRTYHPYYGYTVYIPGSSLKGVVRGFVEKALRTLDDHTSWQWACPTFPDEDESCAKKLGKEENSATIYKNSCGACRLFGHTRLKGRVAFTDLLPVDEVKTEIRYGVAISRLSHAVAHGPFEMEVAVAGTFEGYLILENFELWQLGLLVLAFQGMNSGLLQIGFGKNRGFGEVAVQVQEARLDEVTSGMEIGLWRGLADFVSDEEKTRYGLSTTFTLNGMPDPLRTEPLGLYTRRIYDPKRWDEVAQRVTDKLGTT",
    "soluble on expression in E. coli": "not soluble"
  }
]

----------
- MEASUREMENT_NOTES: soluble on expression in E. coli; label from the status in PepcDB or PDB records
OBSERVATION_TYPE: soluble on expression in E. coli

[
  {
    "PRIMARY_SEQUENCE": "MAEAYLEYLGKHDVLTKLHNRAFYSDELNRLERSALRPVSAIVIDLNGLKEANDKLGHDAGDALLRRVGEVLNGVVTAPNHAARIGGDEFAILLPGADKQVAAAMVDTVYELLKINNQFYSSAPLSLSLGVATTEAGETMESLVRRADMNMYEQKNAYYAALRNRSADNNDTTKGLEHHHHHH",
    "RESULT": "soluble"
  },
  {
    "PRIMARY_SEQUENCE": "MGSDKIHHHHHHMTCAFARTVESRFAELTPTAKRIASYMLANLDRLGLETADQIAQQTGTSGISVGRFLRSVGYRNLDDLKRELRGGADRPWMITDRLDEYRRTNGTNGTAGTQAAAIHSDDRALASSLDRELDAIRHVYRLAEEPVFAQVADRIAHADAVFILGIQSTRGISNAFSSYLEYLRPRVFYSDGQSGSYVDSLNSEFERPYCIVTDVRAYSRSARRYCQAAAERGQPFALVTDLYCPWAREWPADLLQVKTDVGQFWDSLAPLTCLFNLLITAVVDRLGPAIDRRVARNRELQHTFDQFES",
    "RESULT": "not soluble"
  },
  {
    "PRIMARY_SEQUENCE": "LSKVVIRRLPPTLTKEQLQEHLQPMPEHDYFEFFSNDTSLYPHMYARAYINFKNQEDIILFRDRFDGYVFLDNKGQEYPAIVEFAPFQKAA",
    "RESULT": "soluble"
  },
  {
    "PRIMARY_SEQUENCE": "YLYLEITNRCNLKCEMCFKQYWEDKEGDMDWDLFLKILDDAKEFPELKMIYFGGIGEPSVHPRFMDMVREVKRRGFRLGMSTNGVLLEDKILEEFVKLGVDVVYFSMDAIPTPSNIVTLGHITSKVVESRIKKLVELKKRYKTEKPTIGVEVVATKENYKQLPEMAIYLRNLGVDSMLISNLIPMTKEH",
    "RESULT": "not soluble"
  }
]
